ASSAYED TARGET: Full-length (FL)-PRMT5-MEP50 enzyme complex (Homo sapiens)
Construct: Full-length (FL)-PRMT5-MEP50 enzyme complex (recombinant proteins from baculovirus-transfected Sf21 cells: FL-PRMT5; MW=73837 kDa and FL-MEP50; MW=38614); made in house; host or cells: baculovirus-transfected Sf21 cells
EXPERIMENTAL PROTOCOL: PRMT5-MEP50 Enzyme Methylation Assay (Version A)
Format: biochemical
STATED CONDITIONS: second value of 7 parameter biphasic fit; read-out: Enzyme Methylation Assay Version A (EC50 2)
pEC50: −log10 of the molar value.
QUANTITY NAME: pEC50

SMILES REPR: O=C(c1nn2cc(Br)cnc2c1Cl)N1CC[C@]2(Cc3ccccc3CN2)[C@H](O)C1
QUANTITY NAME: pEC50
REPORTED MEASUREMENT: 6.51

a: O=C(c1cn2cc(C(F)F)ccc2n1)N1CC[C@]2(Cc3ccccc3CN2)[C@H](O)C1
b: Cc1ccc2nc(C(=O)N3CC[C@]4(Cc5ccccc5CN4)[C@H](O)C3)cn2c1
c: Cc1cn2cc(C(=O)N3CC[C@]4(Cc5ccccc5CN4)[C@H](O)C3)nc2nc1O
QUERY: Reorder: pEC50, max to min. Respond with an ordered listing of the labels, as requested.
RESULT: a, b, c
(a: 6.68, b: 6.33, c: 4.13)

====

ASSAYED TARGET: Full-length (FL)-PRMT5-MEP50 enzyme complex (Homo sapiens, UniProt O14744)
Construct: Full-length (FL)-PRMT5-MEP50 enzyme complex (recombinant proteins from baculovirus-transfected Sf21 cells: FL-PRMT5; MW=73837 kDa and FL-MEP50; MW=38614); made in house; host or cells: baculovirus-transfected Sf21 cells
Sequence (O14744 whole entry): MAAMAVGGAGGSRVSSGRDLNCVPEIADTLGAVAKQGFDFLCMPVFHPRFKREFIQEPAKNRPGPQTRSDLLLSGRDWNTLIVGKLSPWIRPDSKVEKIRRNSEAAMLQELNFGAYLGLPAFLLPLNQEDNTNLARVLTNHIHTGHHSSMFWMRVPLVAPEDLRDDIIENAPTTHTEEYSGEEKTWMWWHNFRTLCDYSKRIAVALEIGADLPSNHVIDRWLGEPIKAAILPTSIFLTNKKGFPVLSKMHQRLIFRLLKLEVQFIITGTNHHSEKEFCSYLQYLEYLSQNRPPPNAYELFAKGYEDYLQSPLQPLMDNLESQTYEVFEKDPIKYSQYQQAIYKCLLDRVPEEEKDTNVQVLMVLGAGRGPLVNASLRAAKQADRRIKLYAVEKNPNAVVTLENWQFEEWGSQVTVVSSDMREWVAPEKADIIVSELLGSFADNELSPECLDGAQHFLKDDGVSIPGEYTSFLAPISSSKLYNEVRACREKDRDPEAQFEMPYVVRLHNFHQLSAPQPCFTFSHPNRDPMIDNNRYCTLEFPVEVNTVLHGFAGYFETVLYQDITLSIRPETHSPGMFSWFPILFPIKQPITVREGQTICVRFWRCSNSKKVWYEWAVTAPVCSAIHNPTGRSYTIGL
Sequence (Q9BQA1 whole entry partner): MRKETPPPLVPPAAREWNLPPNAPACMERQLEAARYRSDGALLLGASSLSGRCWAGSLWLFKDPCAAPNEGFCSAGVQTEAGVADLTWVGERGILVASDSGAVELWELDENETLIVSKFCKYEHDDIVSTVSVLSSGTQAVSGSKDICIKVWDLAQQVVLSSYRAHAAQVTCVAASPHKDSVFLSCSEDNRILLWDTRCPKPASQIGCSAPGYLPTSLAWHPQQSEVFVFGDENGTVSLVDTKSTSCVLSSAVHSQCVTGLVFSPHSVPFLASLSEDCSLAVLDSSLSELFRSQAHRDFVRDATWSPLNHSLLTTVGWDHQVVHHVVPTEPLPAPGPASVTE
EXPERIMENTAL PROTOCOL: PRMT5-MEP50 Enzyme Methylation Assay (Version A)
Type: biochemical
STATED CONDITIONS: single EC50 = 4 parameter single site sigmoidal fit; EC50 1 = first value of 7 parameter biphasic fit; read-out: Enzyme Methylation Assay Version A (EC50 or EC50 1)
QUANTITY NAME: EC50 (nM)

Below: 3 molecules and their reported EC50.
MOLECULE: CC(C#N)c1ccc2nc(C(=O)N3CC[C@]4(Cc5ccccc5CN4)[C@H](O)C3)cn2c1 (some centres unmarked)
REPORTED MEASUREMENT: 0.405
//
MOLECULE: Cc1cn2cc(C(=O)N3CC[C@]4(Cc5ccccc5CN4)[C@H](O)C3)nc2s1
REPORTED MEASUREMENT: 22.1
//
MOLECULE: CC(C)(O)c1cc(Br)cn2cc(C(=O)N3CC[C@]4(Cc5ccccc5CN4)[C@H](O)C3)nc12
REPORTED MEASUREMENT: 0.421

I: Cc1ccnc2nc(C(=O)N3CC[C@]4(Cc5ccccc5CN4)[C@H](O)C3)nn12
II: O=C(c1ccn2c(Br)cnc2n1)N1CC[C@]2(Cc3ccccc3CN2)[C@H](O)C1
III: Cn1c(=O)c(Br)cn2cc(C(=O)N3CC[C@]4(Cc5ccccc5CN4)[C@H](O)C3)nc12 (single isomer, unassigned)
IV: CO[C@H](C)c1cc(-c2cnn(C)c2C)cn2cc(C(=O)N3CC[C@]4(Cc5ccccc5CN4)[C@H](O)C3)nc12
QUERY: Sort (4 molecules) by EC50: min first. Respond with an ordered listing of the labels, as requested.
RESULT: IV, III, II, I
(IV: 1.24 nM, III: 20.8 nM, II: 63.1 nM, I: 27000 nM)

P: CO[C@H](C)c1cc(N(C)Cc2nonc2C)cn2cc(C(=O)N3CC[C@]4(Cc5ccccc5CN4)[C@H](O)C3)nc12
Q: O=C(c1cc2oc3ccccc3c2cc1O)N1CC[C@]2(Cc3ccccc3CN2)[C@H](O)C1
R: O=C(c1cn2cc(Br)cc(I)c2n1)N1CC[C@]2(Cc3ccccc3CN2)[C@H](O)C1
QUERY: Sort (3 molecules) by EC50: min first. Respond with an ordered listing of the labels, as requested.
RESULT: R, Q, P
(R: 0.639 nM, Q: 4.57 nM, P: 6.82 nM)

a: CCC1Oc2ccc(C(=O)N3CC[C@]4(Cc5ccccc5CN4)[C@H](O)C3)cc2NC1=O (single isomer, unassigned) [Example 104]
b: CC1(C)CC1(C#N)c1cnc2nc(C(=O)N3CC[C@]4(Cc5ccccc5CN4)[C@H](O)C3)cn2c1 (single isomer, unassigned) [Example 147]
QUERY: When the recorded EC50 values are compared, which is smaller: that of a or that of b ? Which one? Tell me its label.
RESULT: b

I: CO[C@H](C)c1cc(N2CCn3nccc32)cn2cc(C(=O)N3CC[C@]4(Cc5ccccc5CN4)[C@H](O)C3)nc12
II: CC1OC(=O)Nc2cc(C(=O)N3CC[C@]4(Cc5ccccc5CN4)[C@H](O)C3)ccc21 (some centres unmarked)
QUERY: Which has the higher EC50, I or II ? Which one? Tell me its label.
RESULT: I

====

ASSAYED TARGET: Full-length (FL)-PRMT5-MEP50 enzyme complex (Homo sapiens, UniProt O14744)
Construct: Full-length (FL)-PRMT5-MEP50 enzyme complex (recombinant proteins from baculovirus-transfected Sf21 cells: FL-PRMT5; MW=73837 kDa and FL-MEP50; MW=38614); made in house; host or cells: baculovirus-transfected Sf21 cells
EXPERIMENTAL PROTOCOL: PRMT5-MEP50 Enzyme Methylation Assay (Version A)
Assay type: biochemical
STATED CONDITIONS: single EC50 = 4 parameter single site sigmoidal fit; EC50 1 = first value of 7 parameter biphasic fit; read-out: Enzyme Methylation Assay Version A (EC50 or EC50 1)
QUANTITY NAME: EC50 (nM)

COMPOUND: Cc1cn2cc(C(=O)N3CC[C@]4(Cc5ccccc5CN4)[C@H](O)C3)nc2nc1C
EC50 [nM]: 7.15

COMPOUND: O=C(c1cn2cc(Br)ncc2n1)N1CC[C@]2(Cc3ccccc3CN2)[C@H](O)C1
EC50 [nM]: 5.35

COMPOUND: O=C(c1cn2cc(Br)cc(Br)c2n1)N1CC[C@]2(Cc3ccccc3CN2)[C@H](O)C1
EC50 [nM]: 1.97

COMPOUND: Cc1c(Br)cnc2ncc(C(=O)N3CC[C@]4(Cc5ccccc5CN4)[C@H](O)C3)n12
EC50 [nM]: 101

a: O=C(c1cn2cc(Br)nc(OC3CCOC3)c2n1)N1CC[C@]2(Cc3ccccc3CN2)[C@H](O)C1 (single isomer, unassigned) [Example 98]
b: N#CCCC1CC(C(F)(F)F)Cn2cc(C(=O)N3CC[C@]4(Cc5ccccc5CN4)[C@H](O)C3)nc21 (single isomer, unassigned) [Example 165]
c: COC[C@@H]1C[C@H](C(F)(F)F)Cn2cc(C(=O)N3CC[C@]4(Cc5ccccc5CN4)[C@H](O)C3)nc21 (single isomer, unassigned)
QUERY: Reorder: EC50, max to min. Respond with an ordered listing of the labels, as requested.
RESULT: b, c, a
(b: 82.2 nM, c: 42.7 nM, a: 0.191 nM)

====

ASSAYED TARGET: Full-length (FL)-PRMT5-MEP50 enzyme complex (Homo sapiens)
Construct: Full-length (FL)-PRMT5-MEP50 enzyme complex (recombinant proteins from baculovirus-transfected Sf21 cells: FL-PRMT5; MW=73837 kDa and FL-MEP50; MW=38614); made in house; host or cells: baculovirus-transfected Sf21 cells
EXPERIMENTAL PROTOCOL: PRMT5-MEP50 Enzyme Methylation Assay (Version A)
Format: biochemical
STATED CONDITIONS: single EC50 = 4 parameter single site sigmoidal fit; EC50 1 = first value of 7 parameter biphasic fit; read-out: Enzyme Methylation Assay Version A (EC50 or EC50 1)
pEC50: −log10 of the molar value.
QUANTITY NAME: pEC50

Below: 3 compounds and their reported pEC50.
COMPOUND: O=C(c1cn2cc(Br)nc(OC3COC3)c2n1)N1CC[C@]2(Cc3ccccc3CN2)[C@H](O)C1
REPORTED MEASUREMENT: 9.64

COMPOUND: O=C(c1cn2cc(O)ccc2n1)N1CC[C@]2(Cc3ccccc3CN2)[C@H](O)C1
REPORTED MEASUREMENT: 7.02

COMPOUND: Cc1cc(C(F)(F)F)cn2cc(C(=O)N3CC[C@]4(Cc5ccccc5CN4)[C@H](O)C3)nc12
REPORTED MEASUREMENT: 9.12

1: CC(O)c1cc(Br)cn2cc(C(=O)N3CC[C@]4(Cc5ccccc5CN4)[C@H](O)C3)nc12 (single isomer, unassigned) [Example 32]
2: N#Cc1ccc2nc(C(=O)N3CC[C@]4(Cc5ccccc5CN4)[C@H](O)C3)cn2c1
3: CCCOc1nc(C)ccc1C(=O)N1CC[C@]2(Cc3ccccc3CN2)[C@H](O)C1
QUERY: Sort (3 compounds) by pEC50: min first. Respond with an ordered listing of the labels, as requested.
RESULT: 2, 3, 1
